- System: SEM cells
- protocol details: cell viability relative to DMSO control; higher = less cytotoxic
- test settings: RPMI 5 mM glucose + 10% FBS; 48 h; 0.0211 µM
test readout: cell viability (%)
Numbers only; they are read as %.

The cases that follow already have their cell viability on record.
O=C(/C=C/c1ccc(/C=C/C(=O)Nc2ccc(C3=NCCN3)cc2)cc1)Nc1ccc(C2=NCCN2)cc1 | 102
CC1(C)CC\C2=C(/O1)C3=C(C=CC=C3)C(=O)C2=O | 124
C[C@]12CC[C@H]3[C@@H](CC(=C)\C4=C\C(=O)\C=C/[C@]34C)[C@@H]1CCC2=O | 96.9
CC(C)(N)C(=O)N[C@H](COCc1ccccc1)C(=O)N1CCC2(CC1)CN([S+](C)(=O)[O-])c1ccccc12 | 155

Respond only with cell viability recorded for CNC(=O)c1ccc2c(c1)NC(=O)/C2=C(\Nc1cccc(CN(C)C)c1)c1ccccc1
106

* * *

- System: SEM cells
- protocol details: cell viability relative to DMSO control; higher = less cytotoxic
- test settings: RPMI 5 mM glucose + 10% dialyzed FBS; 48 h; 0.569 µM
test readout: cell viability (%)
Numbers only; they are read as %.

CCN(CC)CCNC(=O)c1c(C)[nH]c(/C=C2\C(=O)Nc3ccc(F)cc32)c1C | 9.05
CO[C@@H](C(=O)N1Cc2[nH]nc(NC(=O)c3ccc(N4CCN(C)CC4)cc3)c2C1)c1ccccc1 | 32.2
N[S+](=O)([O-])c1ccc(Nc2nc(OCC3CCCCC3)c3[nH]cnc3n2)cc1 | 49.6
COc1cc(NCc2ccc3nc(N)nc(N)c3c2C)cc(OC)c1OC | 102
COc1ccccc1[C@H](c1cccc2ccccc12)[C@@](C)(C#N)C(=O)N1CCC(c2cccc(C(F)(F)F)c2)CC1 | 102
COc1cc2c(cc1OC)[C@@H]1Cc3ccc(OC)c(OC)c3CN1CC2 | 108

Respond only with cell viability recorded for CN(C)c1nc(Cc2ccc(NC(=O)c3ccc(C(F)(F)F)cc3)cc2)nc(N(C)C)c1CC(=O)O
113

Respond only with cell viability recorded for CN1CCc2c(c3ccccc3n2Cc2ccc(C(=O)NO)cc2)C1
58.1

Respond only with cell viability recorded for Nc1ccc(C(=O)c2cc3c(ccc4ccccc43)[nH]2)cc1
100

Respond only with cell viability recorded for C=CC(=O)Nc1cccc(Sc2nc(Nc3ccc(N4CCN(C)CC4)cc3)ncc2Cl)c1
72.9

Respond only with cell viability recorded for CC(=O)N(C)C1(c2ccccc2)CCN(CCC[C@]2(c3ccc(Cl)c(Cl)c3)CCCN(C(=O)c3ccccc3)C2)CC1
133

* * *

- System: NOMO1
- protocol details: cell viability relative to DMSO control; higher = less cytotoxic
- test settings: RPMI 5 mM glucose + 10% dialyzed FBS; 48 h; 0.00702 µM
test readout: cell viability (%)
Numbers only; they are read as %.

The cases that follow already have their cell viability on record.
Clc2cccc(Cl)c2\N=C1/NCCN1 | 109
CN(C)C/C=C/C(=O)Nc1ccc(C(=O)Nc2cccc(Nc3ncc(Cl)c(-c4c[nH]c5ccccc45)n3)c2)cc1 | 91.2
CC(C)(N)c1ccc(-c2nc3ccccc3nc2-c2ccccc2)cc1 | 108
CC1(C)CC\C2=C(/O1)C3=C(C=CC=C3)C(=O)C2=O | 109

Now look at this one.
Respond only with cell viability recorded for CCNC(=O)Nc1ccc(Oc2ncnc(N)c2/C=N/OC)cc1Cl
98.1

* * *

- Tested on: SEM cells
- protocol details: cell viability relative to DMSO control; higher = less cytotoxic
- test settings: RPMI 5 mM glucose + 10% FBS; 48 h; 5.12 µM
Catalogue of cell viability values
Numbers only; they are read as %.

The cases that follow already have their cell viability on record.
Oc1cc(-c2nc(-c3ccccc3)[nH]c2-c2ccncc2)ccc1Cl | 106
O=C(O)c1ccc(O)c2ncc(N3CCOCC3)cc12 | 65.9
CCNC(=O)CCC/C=C\C[C@@H]1[C@@H](/C=C/C(O)CCc2ccccc2)[C@@H](O)C[C@@H]1O (some centres undefined) | 111
CNC(=O)c1ccc2c(c1)NC(=O)/C2=C(\Nc1cccc(CN(C)C)c1)c1ccccc1 | 3.4
COc1cc2c(cc1OC)[C@@H]1Cc3ccc(OC)c(OC)c3CN1CC2 | 99.4
Cc1ccc([C@@H]2O[C@H](CO)[C@@H](O)[C@H](O)[C@H]2O)cc1Cc1ccc(-c2ccc(F)cc2)s1 | 111
Nc1nc(F)nc2c1ncn2[C@@H]1O[C@H](COP(=O)(O)O)[C@@H](O)[C@@H]1O | 93.7
CC(=O)SC[C@@H](C)C(=O)N1CCC[C@H]1C(=O)N[C@@H](Cc1ccccc1)C(=O)O | 113

Now look at this one.
Respond only with cell viability recorded for CCCOc1ccc(C(=O)OCCN(CC)CC)cc1N
105

* * *

- Test system: P12-Ichikawa
- protocol details: cell viability relative to DMSO control; higher = less cytotoxic
- test settings: RPMI 5 mM glucose + 10% dialyzed FBS; 48 h; 15.4 µM
test readout: cell viability (%)
Numbers only; they are read as %.

C[C@]12CCC3c4ccc(O)cc4CCC3C1CCC2=O (stereo not given in full) | 54.4

Now look at this one.
Respond only with cell viability recorded for CNc1nc(-c2ccc3c(N)n[nH]c3c2)cc(N2C[C@@H](C(=O)NC3CCCCC3)CC[C@H]2C)n1
52.1

* * *

- Tested on: NOMO1
- protocol details: cell viability relative to DMSO control; higher = less cytotoxic
- test settings: RPMI 5 mM glucose + 10% dialyzed FBS; 48 h; 15.4 µM
test readout: cell viability (%)
Numbers only; they are read as %.

The cases that follow already have their cell viability on record.
COc1cc(NCc2ccc3nc(N)nc(N)c3c2C)cc(OC)c1OC | 37.9
NC(=O)c1cccc(-c2cc(Nc3ccc(OC(F)(F)F)cc3)ncn2)c1 | 79.6
c1cc(-c2cnn3cc(-c4ccc(OCCN5CCCCC5)cc4)cnc23)ccn1 | 80.9

Respond only with cell viability recorded for N[S+](=O)([O-])c1ccc(Nc2nc(OCC3CCCCC3)c3[nH]cnc3n2)cc1
32

Respond only with cell viability recorded for O=C(O)c1ccc(O)c2ncc(N3CCOCC3)cc12
104

Respond only with cell viability recorded for COc1cc(C(=O)NC2CCN(C)CC2)ccc1Nc1ncc2c(n1)N(C1CCCC1)CCC(=O)N2C(C)C
105

Respond only with cell viability recorded for CC[C@H]1OC(=O)[C@H](C)[C@@H](O[C@H]2C[C@@](C)(OC)[C@@H](O)[C@H](C)O2)[C@H](C)[C@@H](O[C@@H]2O[C@H](C)C[C@H](N(C)C)[C@H]2O)[C@](C)(OC)C[C@@H](C)C(=O)[C@H](C)[C@@H](O)[C@]1(C)O
84.4

Respond only with cell viability recorded for Cc1cc(Nc2cc(N3CCN(C)CC3)nc(/C=C/c3ccccc3)n2)n[nH]1
7.24

Respond only with cell viability recorded for Nc1ccc(C(=O)Nc2cccc(-c3nc(N4CCOCC4)c4oc5ncccc5c4n3)c2)cn1
73.7

Respond only with cell viability recorded for CC(=O)SC[C@@H](C)C(=O)N1CCC[C@H]1C(=O)N[C@@H](Cc1ccccc1)C(=O)O
106

Respond only with cell viability recorded for Cc1c(N)nc([C@H](CC(N)=O)NC[C@@H](N)C(N)=O)nc1C(=O)N[C@H](C(=O)N[C@@H](C)[C@H](O)[C@@H](C)C(=O)N[C@@H](C(=O)NCCc1nc(-c2nc(C(=O)NCCC[S+](C)C)cs2)cs1)[C@@H](C)O)C(O[C@H]1O[C@H](CO)[C@H](O)[C@@H](O)[C@H]1O[C@H]1O[C@H](CO)[C@@H](O)[C@H](OC(N)=O)[C@@H]1O)c1c[nH]cn1 (some centres undefined)
85

Respond only with cell viability recorded for CC(C)(N)c1ccc(-c2nc3ccccc3nc2-c2ccccc2)cc1
6.51

Respond only with cell viability recorded for C[C@H](CCC(=O)O)[C@H]1CC[C@H]2[C@@H]3[C@H](O)C[C@@H]4C[C@H](O)CC[C@]4(C)[C@H]3CC[C@]12C
99.2

Respond only with cell viability recorded for C[S+](=O)([O-])Oc1ccc2c(NC(N)=O)c(C(=O)c3ccc(Cl)cc3Cl)oc2c1
105

* * *

- System: NOMO1
- protocol details: cell viability relative to DMSO control; higher = less cytotoxic
- test settings: HPLM + 10% dialyzed FBS; 48 h; 46.1 µM
test readout: cell viability (%)
Numbers only; they are read as %.

Cc1ccc(Nc2cc(-c3cccc(N4C(=O)c5ccccc5C4=O)c3)ncn2)cc1N[S+](C)(=O)[O-] | 107
CNC(=O)c1ccc2c(c1)NC(=O)/C2=C(\Nc1cccc(CN(C)C)c1)c1ccccc1 | 0.559
NC1=NC(=O)N2CC12 (configuration not stated) | 4.55
Nc1nc(F)nc2c1ncn2[C@@H]1O[C@H](COP(=O)(O)O)[C@@H](O)[C@@H]1O | 21
CCCN[C@H]1CCc2nc(N)sc2C1 | 114
OC1=CC=C(C=C1)C/2=C/C3=C(OC2)C=C(O)C=C3 | 5.22

Respond only with cell viability recorded for CC[C@H]1OC(=O)[C@H](C)[C@@H](O[C@H]2C[C@@](C)(OC)[C@@H](O)[C@H](C)O2)[C@H](C)[C@@H](O[C@@H]2O[C@H](C)C[C@H](N(C)C)[C@H]2O)[C@](C)(OC)C[C@@H](C)C(=O)[C@H](C)[C@@H](O)[C@]1(C)O
101

Respond only with cell viability recorded for CC(=O)N(C)C1(c2ccccc2)CCN(CCC[C@]2(c3ccc(Cl)c(Cl)c3)CCCN(C(=O)c3ccccc3)C2)CC1
4.11

Respond only with cell viability recorded for CCn1nnc2c(N3CCOCC3)nc(-c3ccc(NC(=O)Nc4ccc(C(=O)N5CCN(C)CC5)cc4)cc3)nc21
48

Respond only with cell viability recorded for Cc1cc(Nc2cc(N3CCN(C)CC3)nc(/C=C/c3ccccc3)n2)n[nH]1
5.88

Respond only with cell viability recorded for C[C@]12CCC3c4ccc(O)cc4CCC3C1CCC2=O (some centres not stated)
79.9
